FYI, the data here is from paper PMC11372076.

# ASSAY_TEXT: in vitro
# RUN_CONDITIONS: African green monkey
MEASUREMENT_TYPE: CC50 (µM)

* c1ccc(-c2cc(Nc3nc(-c4ccncc4)nc4ccccc34)n[nH]2)cc1 | 62.3
* Cc1cccc(/C=N/Nc2cc(N3CCOCC3)nc(OCCc3ccccn3)n2)c1 | 73.6

====

# Tested on: Wuhan-Hu-1 spike-pseudotyped virus
# ASSAY_TEXT: microbe, parasite or virus in culture
# Assay type: cell-based, SARS-CoV-2
# RUN_CONDITIONS: read-out: concentration that inhibited spike-mediated viral entry by 50% compared to maximal inhibition
MEASUREMENT_TYPE: IC50 (µM)

* NC(=O)c1nc(Nc2ccccc2)sc1NC(=O)C1CCCCC1 | 4
